So I've got a bunch of compounds here, and I need their half-life values.
# target-desc: DCN1 (DCUND1) protein PONY domain (Homo sapiens (Human))
# procedure-summary: Off-rate measurement of reversible covalent molecules (jump dilution TR-FRET with Cy5 probe)
# Type: binding
# condition-parameters: ln(2)/K; jump dilution TR-FRET
Please give a number only; it is taken to be in h.

Ask: State the recorded half-life for this entry: CCN1C(=O)[C@@H](NC(=O)c2cccc(C(F)(F)F)c2)[C@@H](c2ccc(F)cc2)c2c(C(=O)N3CCC[C@H]3C#N)nn(C3CCOCC3)c21
Result: 8.07

Ask: Okay, and CCN1C(=O)[C@@H](NC(=O)c2cccc(C(F)(F)F)c2)[C@@H](C2CC2)c2c(C(=O)N3CCOC[C@H]3C#N)nn(C3CCOCC3)c21 ?
Result: 3.427

Ask: Also CCN1C(=O)[C@@H](NC(=O)c2cccc(C(F)(F)F)c2)[C@@H](c2ccc(F)cc2)c2c(C(=O)N3CC[C@H]3C#N)nn(C3CCOCC3)c21 ?
Result: 2.122

Ask: Next record, please: CCN1C(=O)[C@@H](NC(=O)c2cccc(C(F)(F)F)c2)[C@@H](C2CC2)c2c(C(=O)N3CC[C@H]3C#N)nn(C3CCOCC3)c21
Result: 3.07

Ask: Same read-out for CCc1cccc(C(=O)N[C@@H]2C(=O)N(CC)c3c(c(C(=O)N4[C@H](C#N)C[C@H]5C[C@H]54)nn3C3CCOCC3)[C@@H]2C2CC2)c1 ?
Result: 2.593

Ask: Now the same for CCN1C(=O)[C@@H](NC(=O)c2cccc(C(F)(F)F)c2)[C@@H](C2CC2)c2c(C(=O)N3[C@H](C#N)C[C@H]4C[C@H]43)nn(C3CCOCC3)c21
Result: 2.535

Ask: Also CCN1C(=O)[C@@H](NC(=O)c2cccc(C(F)(F)F)c2)[C@@H](C)c2c(C(=O)N3[C@H](C#N)C[C@H]4C[C@H]43)nn(C3CCOCC3)c21 , if possible.
Result: 1.67

Ask: Field entry: CCN1C(=O)[C@@H](NC(=O)c2cccc(C(F)(F)F)c2)[C@@H](C2CC2)c2c(C(=O)N3C[C@H](NC)C[C@H]3C#N)nn(C3CCOCC3)c21
Result: 0.8782

====

Give IC50 for every item shown.
# target-desc: DCN1 (DCUND1) protein PONY domain (Homo sapiens (Human), UniProt Q96GG9)
# Sequence (Q96GG9 60-248): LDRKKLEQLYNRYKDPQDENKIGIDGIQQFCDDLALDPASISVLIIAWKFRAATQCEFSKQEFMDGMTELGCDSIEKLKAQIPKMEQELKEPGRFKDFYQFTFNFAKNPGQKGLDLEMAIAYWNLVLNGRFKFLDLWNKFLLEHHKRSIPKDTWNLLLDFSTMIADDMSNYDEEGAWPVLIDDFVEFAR
# procedure-summary: TR-FRET assay, DCN1 binding with FAM-labeled probe
# condition-parameters: TR FRET IC50 1 hr (nM), 1 hr after treatment with compound

Ask: Return reported IC50; argument: CCN1C(=O)[C@@H](NC(=O)c2cccc(C(F)(F)F)c2)[C@@H](c2ccc(F)cc2)c2c(C/C=C/C(=O)O)nn(-c3ccccc3)c21 (racemic) [Compound I-83]
Result: 1000 to 3000 nM

Ask: Entry to check: CCN1C(=O)[C@@H](NC(=O)c2cccc(C(F)(F)F)c2)[C@@H](c2ccc(F)cc2)c2c(CN(C)C/C=C/C(=O)OC)nn(-c3ccccc3)c21 (racemic) [Compound I-250]
Result: 200 to 1000 nM

Ask: For CCN1C(=O)[C@@H](NC(=O)c2cccc(C(F)(F)F)c2)[C@@H](c2ccc(F)cc2)c2c(C(=O)N[C@H](C)C#N)nn(-c3ccccc3)c21 (mixture of isomers) [Compound I-157] then?
Result: 1000 to 3000 nM

Ask: Now this one: CCCn1nc(C(=O)N(CC#N)C2CC2)c2c1N(CC)C(=O)[C@@H](NC(=O)c1cccc(C(F)(F)F)c1)[C@H]2C1CC1 [Compound I-427]
Result: 1000 to 3000 nM

Ask: Now give it for CCN1C(=O)[C@@H](NC(=O)c2cccc(C(F)(F)F)c2)[C@@H](c2ccc(F)cc2)c2c([C@@H](CN(C)C)NC(N)=O)nn(-c3ccccc3)c21 (mixture of isomers) [Compound I-673] too.
Result: 200 to 1000 nM

====

# target-desc: DCN1 (DCUND1) protein PONY domain (Homo sapiens (Human))
# procedure-summary: TR-FRET assay, DCN1 binding with FAM-labeled probe
# condition-parameters: TR FRET IC50 1 hr (nM), 1 hr after treatment with compound
I'd be grateful if you could share measured IC50 for these entries.

Ask: Please report the recorded IC50 for CCN1C(=O)[C@@H](NC(=O)c2cccc(C(F)(F)F)c2)[C@@H](c2ccc(F)cc2)c2c(NC(=O)[C@@H](C)Cl)nn(-c3ccccc3)c21 (mixture of isomers) .
Result: 200 to 1000 nM

Ask: Here is the next compound: CCN1C(=O)[C@H](NC(=O)c2cccc(C(F)(F)F)c2)[C@H](c2ccc(F)cc2)c2c(C(=O)N3CCC[C@H]3C#N)nn(-c3cccc(OCCN(C)C4COC4)c3)c21
Result: 1000 to 3000 nM

Ask: Would you kindly repeat that for CCN1C(=O)[C@@H](NC(=O)c2cccc(C(F)(F)F)c2)[C@@H](c2ccc(F)cc2)c2c(CNC(=O)C#CCN(C)C)nn(-c3ccccc3)c21 (racemic) ?
Result: ≤ 200 nM

Ask: Continue with CCN1C(=O)[C@@H](NC(=O)c2ccn(C(F)(F)F)n2)[C@@H](c2ccc(F)cc2)c2c(C(=O)N3CCNC[C@H]3C#N)nn(-c3ccccc3)c21
Result: 200 to 1000 nM

Ask: Quick one: C/C=C/C(=O)N[C@@H](C)c1nn(-c2ccccc2)c2c1[C@H](c1ccc(F)cc1)[C@H](NC(=O)c1cccc(C(F)(F)F)c1)C(=O)N2CC (mixture of isomers)
Result: 1000 to 3000 nM

====

# target-desc: DCN1 (DCUND1) protein PONY domain (Homo sapiens (Human))
# procedure-summary: TR-FRET assay, DCN1 binding with FAM-labeled probe
# condition-parameters: TR FRET IC50 1 hr (nM), 1 hr after treatment with compound
# Method: A TR-FRET assay was performed to evaluate the ability of the compounds to bind the DCN-1 protein. The TR-FRET assay was designed following the Scott et al. protocol (Scott et al., Nat Chem Biol. 2017 August; 13(8): 850-857. Doi:10.1038/nchembio.2386). […] The TR-FRET ratio between Tb-DCN1 and the FAM-labeled probe was measured in a 384-well opti-plate (Perkin Elmer) using a plate reader (BMG) at 1, 5, and 24 hrs after treatment with compound (final DMSO concentration of 0.1%).
Provide the reported IC50 of each item.

Ask: May I ask what IC50 has been recorded for CCN1C(=O)[C@@H](NC(=O)c2cccc(C(F)(F)F)c2)[C@@H](C2CC2)c2c(C(=O)N3CCC[C@H]3C#N)nn(C3CCOCC3)c21 [Compound I-348] ?
Result: 200 to 1000 nM

Ask: Item: CCN1C(=O)[C@@H](NC(=O)c2cccc(N3CCCC3=O)c2)[C@@H](C2CC2)c2c(C(=O)N3[C@H](C#N)C[C@H]4C[C@H]43)nn(C3CCOCC3)c21 [Compound I-505]
Result: 1000 to 3000 nM

Ask: And what about the molecule CCN1C(=O)[C@@H](NC(=O)c2ccc3nonc3c2)[C@@H](C2CC2)c2c(C(=O)N3[C@H](C#N)C[C@H]4C[C@H]43)nn(C3CCOCC3)c21 [Compound I-668] ?
Result: 1000 to 3000 nM

Ask: Another molecule to check: CCN1C(=O)[C@@H](NC(=O)c2cccc(C(F)(F)F)c2)[C@@H](C2CC2)c2c(C(=O)N(CC#N)C3CC3)nn(C3CCOCC3)c21 [Compound I-682]
Result: 200 to 1000 nM

Ask: Now the molecule CCN1C(=O)[C@@H](NC(=O)c2cccc(C(F)(F)F)c2)[C@@H](c2ccc(F)cc2)c2c(C/C=C/C(=O)OC)nn(-c3ccccc3)c21 (racemic) [Compound I-131]
Result: 1000 to 3000 nM

====

Provide the recorded residence time for the entries that follow.
# target-desc: DCN1 (DCUND1) protein PONY domain (Homo sapiens (Human), UniProt Q96GG9)
# procedure-summary: Off-rate measurement of reversible covalent molecules (jump dilution TR-FRET with Cy5 probe)
# Assay type: binding
# condition-parameters: inverse of rate constant K; jump dilution TR-FRET
The reply should be a number in min, with the unit left off.

Ask: For the molecule CCN1C(=O)[C@@H](NC(=O)c2cccc(C(F)(F)F)c2)[C@@H](C2CC2)c2c(C(=O)N3CCS(=O)(=O)C[C@H]3C#N)nn(C3CCOCC3)c21 (mixture of isomers) , what residence time is on record?
Result: 78.9

Ask: One more molecule: CCN1C(=O)[C@@H](NC(=O)c2cccc(C(F)(F)F)c2)[C@@H](c2ccc(F)cc2)c2c(C(=O)N3CCC[C@H]3C#N)nn(C3CCOCC3)c21
Result: 699

Ask: Also, CCN1C(=O)[C@@H](NC(=O)c2cccc(C(F)(F)F)c2)[C@@H](c2ccc(F)cc2)c2c(C(=O)N(C)[C@@H](C#N)CCN(C)C)nn(C3CCOCC3)c21 please.
Result: 39.4

Ask: Now the molecule CCN1C(=O)[C@@H](NC(=O)c2cccc(C(F)(F)F)c2)[C@@H](c2ccc(F)cc2)c2c(C(=O)N3CC[C@H]3C#N)nn(C3CCOCC3)c21
Result: 184

Ask: Moving on to the next molecule: CCN1C(=O)[C@@H](NC(=O)c2cccc(C(F)(F)F)c2)[C@@H](C2CC2)c2c(C(=O)N3[C@H](C#N)C[C@H]4C[C@H]43)nn(C3CCOCC3)c21
Result: 219
